Assay: APR_HepG2_CellLoss_72hr: Apredica 72-hour HepG2 Assay for Cell Loss (AID 2282915)
Conditions: high-content imaging
Calls of active or inactive are those of the source. The calls were made as follows: active = hit-call score of the fitted dose curve at least 0.9, where 1 is the maximum; inactive = score below 0.9.
I would appreciate it if you answered using one of these outcomes: label 1 = active, label 0 = inactive

Problem: Called result for `CCNc1nc(Cl)nc(NCC)n1`
Solution: label 0

Problem: How was `O=C(Nc1ccccc1)Nc1ccnc(Cl)c1` classified in this test?
Solution: label 1

Problem: Please share the test call associated with `CNC(=O)ON=CC(C)(C)SC` .
Solution: label 0

Problem: Dear all, I need the recorded test outcome for `CCc1nn(C)c(C(=O)NCc2ccc(C(C)(C)C)cc2)c1Cl` , thank you.
Solution: label 1

Problem: Please let me know the test result on file for CC1COC(Cn2cncn2)(c2ccc(Oc3ccc(Cl)cc3)cc2Cl)O1 (stereo not given) .
Solution: label 1

Problem: Test call for this compound, please: `O=C(O)COc1nc(Cl)c(Cl)cc1Cl`
Solution: label 0

Problem: Fill in: this test's call for CCCCC(CC)COC(=O)c1ccccc1C(=O)OCC(CC)CCCC (stereo not given) is ___
Solution: label 0

Problem: Given `COc1nc(C)nc(NC(=O)NS(=O)(=O)c2ccccc2Cl)n1` , state the outcome it received in this test.
Solution: label 0

Problem: Please state the recorded outcome for this compound: `CC(C)Oc1cc(-n2nc(C(C)(C)C)oc2=O)c(Cl)cc1Cl`
Solution: label 1

Problem: Given `CON(C)C(=O)Nc1ccc(Cl)c(Cl)c1` , state the outcome it received in this test.
Solution: label 0

Problem: What is the recorded call for this compound in the test? `CCNc1nc(Cl)nc(NC(C)C)n1`
Solution: label 0

Problem: Would you mind telling me which call this test gave `N#Cc1cc(Br)c(O)c(Br)c1` ?
Solution: label 1

Problem: What is the recorded call for this compound in the test? N#Cc1nn(-c2c(Cl)cc(C(F)(F)F)cc2Cl)c(N)c1S(=O)C(F)(F)F (stereo not given)
Solution: label 1

Problem: Fill in: this test's call for COC(=O)C(C)Oc1ccc(Oc2ccc(Cl)cc2Cl)cc1 (stereo not given) is ___
Solution: label 0

Problem: Outcome? CCOC(=O)CC(SP(=S)(OC)OC)C(=O)OCC (stereo not given)
Solution: label 1

Problem: So what was the verdict on `CNC(=S)S` in this test?
Solution: label 1

Problem: Which result was noted for this compound in the test: CCCC1COC(Cn2cncn2)(c2ccc(Cl)cc2Cl)O1 (stereo not given)
Solution: label 1

Problem: For this compound, state the assay outcome: `CCCCNC(=O)n1c(NC(=O)OC)nc2ccccc21`
Solution: label 1

Problem: Hi, do you know how `COc1nc(NC(C)C)nc(NC(C)C)n1` came out in this test?
Solution: label 0

Problem: What did the test return for `CS/C(C)=N/OC(=O)N(C)SN(C)C(=O)O/N=C(\C)SC` ?
Solution: label 0

Problem: Can you look up the reported call for Cc1c(F)c(F)c(COC(=O)C2C(/C=C(\Cl)C(F)(F)F)C2(C)C)c(F)c1F (stereo not given) for me?
Solution: label 0

Problem: In this assay, the call recorded for CC(C)C1(C)N=C(c2nc3ccccc3cc2C(=O)O)NC1=O (stereo not given) was what?
Solution: label 0

Problem: How was `COc1cnc(OC)n2nc(NS(=O)(=O)c3c(OCC(F)F)cccc3C(F)(F)F)nc12` classified in this test?
Solution: label 0

Problem: So what was the verdict on `COc1nc(C)nc(NC(=O)NS(=O)(=O)c2ccccc2CCC(F)(F)F)n1` in this test?
Solution: label 0

Problem: Recorded test call requested for N#CC(CCc1ccc(Cl)cc1)(Cn1cncn1)c1ccccc1 (stereo not given)
Solution: label 0

Problem: Give the logged outcome of this assay for the following compound: C#CCOS(=O)OC1CCCCC1Oc1ccc(C(C)(C)C)cc1 (stereo not given)
Solution: label 1

Problem: I'd appreciate the recorded outcome for `COC(=O)N(OC)c1ccccc1COc1ccn(-c2ccc(Cl)cc2)n1` from this test.
Solution: label 1

Problem: Look up the recorded call for CCON=C(CC)C1=C(O)CC(c2c(C)cc(C)cc2C)CC1=O (stereo not given) in this test.
Solution: label 0

Problem: Test call for this compound, please: C=CCC1=C(C)C(OC(=O)C2C(C=C(C)C)C2(C)C)CC1=O (stereo not given)
Solution: label 1

Problem: Record request — test call for `Cc1cc(Cl)ccc1OCC(=O)O`
Solution: label 0
